Measured PBM E-score accompanies every entry in the list below.
# subject of test: Ybr033w (UniProt P38073)
# Sequence: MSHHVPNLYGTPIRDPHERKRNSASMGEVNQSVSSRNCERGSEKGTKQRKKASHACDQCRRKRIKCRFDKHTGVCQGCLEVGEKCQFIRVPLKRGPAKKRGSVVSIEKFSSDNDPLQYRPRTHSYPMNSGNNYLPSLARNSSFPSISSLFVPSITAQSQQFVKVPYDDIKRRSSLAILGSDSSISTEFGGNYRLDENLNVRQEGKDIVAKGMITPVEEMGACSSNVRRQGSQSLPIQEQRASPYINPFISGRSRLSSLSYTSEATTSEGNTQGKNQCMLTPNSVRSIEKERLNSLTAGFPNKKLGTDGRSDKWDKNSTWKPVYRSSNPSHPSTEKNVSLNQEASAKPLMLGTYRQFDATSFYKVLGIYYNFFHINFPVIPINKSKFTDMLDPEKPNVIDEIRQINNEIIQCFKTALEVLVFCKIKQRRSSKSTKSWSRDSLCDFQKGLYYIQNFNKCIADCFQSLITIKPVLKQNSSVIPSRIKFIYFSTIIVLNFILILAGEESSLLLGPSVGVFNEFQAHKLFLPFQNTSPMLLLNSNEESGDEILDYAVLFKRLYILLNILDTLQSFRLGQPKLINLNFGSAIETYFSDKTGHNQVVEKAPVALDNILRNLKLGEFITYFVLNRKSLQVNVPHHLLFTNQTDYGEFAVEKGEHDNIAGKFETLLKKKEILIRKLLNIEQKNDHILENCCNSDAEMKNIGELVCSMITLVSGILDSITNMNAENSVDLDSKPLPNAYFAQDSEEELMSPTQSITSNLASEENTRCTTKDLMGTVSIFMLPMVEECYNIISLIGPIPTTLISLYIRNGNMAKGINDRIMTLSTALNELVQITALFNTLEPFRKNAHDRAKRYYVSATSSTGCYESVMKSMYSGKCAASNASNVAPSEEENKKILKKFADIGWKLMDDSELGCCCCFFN
# test: PBM E-score (8-mer binding enrichment) (E-score (-0.5 to 0.5)); higher = stronger / more preferred TF binding
# stated conditions: protein concentration: 200 nM; construct: GST-full length
Over roughly 33,000 sequences, “E-score (-0.5 to 0.5)” has its median near -0.012; the highest 2% begin near 0.29. What follows is part of a selection rich in the highest values, with near analogues and random picks from the rest.

Sample records with PBM E-score:
>  <chain sequence>
GATTTTCA

>  <PBM E-score>
0.205

$$$$
>  <chain sequence>
CAATTTCC

>  <PBM E-score>
0.195

$$$$

Could you now look at the following sequence, please?
Form: sequence = AGATCAAC ; PBM E-score = 0.0509

This collection of values is drawn from the supplement of paper PMC3334620.
